Let's look at some variants and their measured exon inclusion enrichment index.
B1: mRNA-splicing (parent)
chain: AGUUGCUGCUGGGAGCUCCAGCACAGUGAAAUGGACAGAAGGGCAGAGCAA

# Variants of: B1
# Method notes: exon inclusion enrichment index; higher = more inclusion; WT1 exon 5 minigene, HEK293
Answer field: number only, no words.

Reference set (2 entries):
Task: Sample G5C C6G U7C U10C G46A A47G — what was its exon inclusion enrichment index?
Output: 1.33

Task: Sample G5C C6G U7C U10C — what was its exon inclusion enrichment index?
Output: 3.75

Next up:
Task: Sample G5U G8U C9U A31C U32C — what was its exon inclusion enrichment index?
Output: 0.544
